Attribution: patent US12404261B2

# experimental_system: human truncated cGAS enzyme (147-522 human cGAS) (Homo sapiens (Human))
# assay_explanation: Quantification of cGAS protein inhibition (cGAMP formation measured by LC-MS/MS)
# Assay type: biochemical
# recorded_conditions: reported for the potential mixture of co-existing tautomers and/or racemates
# pIC50 values compiled below
pIC50 is a log-scale quantity: -log10 of the concentration expressed in molar.

1) COc1cc2c(-c3cn[nH]c3)c(-c3nnc(C(F)(F)F)[nH]3)[nH]c2cc1Cl : 7.16
2) COc1cc2c(-n3ccnc3)c(-c3nnc(N4CC[C@@H](O)C4)[nH]3)n(C)c2c(F)c1Cl : 6.96
3) COCC(F)(F)c1nnc(-c2[nH]c3c(Cl)c(Cl)ccc3c2-c2cn[nH]c2)[nH]1 : 7.52

Read the next record carefully.
pIC50 reported for this compound N#Cc1cc2c(-c3cn[nH]c3)c(-c3nnc(C(F)(F)F)[nH]3)[nH]c2c(F)c1Cl : 6.82

* * *

pIC50 reference
# experimental_system: human truncated cGAS enzyme (147-522 human cGAS) (Homo sapiens (Human), UniProt Q8N884)
# Sequence (Q8N884 147-522): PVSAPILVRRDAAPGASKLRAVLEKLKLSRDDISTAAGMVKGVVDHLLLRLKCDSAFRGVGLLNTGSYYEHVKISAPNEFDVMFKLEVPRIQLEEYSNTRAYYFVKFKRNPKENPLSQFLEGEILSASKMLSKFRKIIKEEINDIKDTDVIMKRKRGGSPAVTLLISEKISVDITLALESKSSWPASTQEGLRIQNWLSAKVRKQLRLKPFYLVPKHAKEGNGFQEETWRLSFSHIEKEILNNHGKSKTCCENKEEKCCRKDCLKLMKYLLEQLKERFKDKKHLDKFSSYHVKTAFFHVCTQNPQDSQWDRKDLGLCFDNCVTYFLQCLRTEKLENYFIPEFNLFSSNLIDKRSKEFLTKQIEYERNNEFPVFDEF
# assay_explanation: Quantification of cGAS protein inhibition (cGAMP formation measured by LC-MS/MS)
# Assay type: biochemical
# recorded_conditions: reported for the potential mixture in solution of co-existing tautomers and/or racemates
# pIC50: negative log10 of molar concentration; output just the value

Below, 3 molecules whose answers are already recorded.
1. COc1cc2c(-n3ccnc3)c(-c3nnc(C(=O)N(C)C)[nH]3)n(C)c2c(F)c1F : 6.50
2. CNC(COC)c1nnc(-c2c(-n3ccnc3)c3cc(OC)c(Cl)c(F)c3n2C)[nH]1 (racemic) : 7.13
3. COC[C@H](c1nnc(-c2c(-n3ccnc3)c3cc(OC)c(Cl)c(F)c3n2C)[nH]1)N(C)C [Example 124b] : 6.85

Form: molecule = Cn1c(-c2nnc(CCO)[nH]2)c(-n2ccnc2)c2cc(O)c(Cl)c(C#N)c21 ; pIC50 = 6.77

Noted for COCC(c1nnc(-c2c(-n3ccnc3)c3cc(OC)c(Cl)c(F)c3n2C)[nH]1)N1CCOCC1 (stereo not drawn) : its pIC50 reads 6.39

For reference, reported pIC50 for COc1cc2c(-n3ccnc3)c(-c3nnc(C(F)(F)F)[nH]3)[nH]c2cc1Cl stands at 7.10

COc1cc2c(-n3ccnc3)c(-c3nnc(C(F)(F)F)[nH]3)n(C)c2cc1Cl has a reported pIC50 of 6.85

COCC(c1nnc(-c2c(-n3ccnc3)c3cc(OC)c(Cl)c(F)c3n2C)[nH]1)N1CCC1 (stereo not drawn) yielded pIC50 of 6.31

According to the records, this molecule COc1cc2c(-n3ccnc3)c(-c3nnc(CCO)[nH]3)n(C)c2c(C#N)c1Cl displays pIC50 of 6.54

The molecule listed as COCCN(C)C(C)c1nnc(-c2c(-n3ccnc3)c3cc(OC)c(Cl)c(F)c3n2C)[nH]1 (stereo not drawn) shows pIC50 equal to 6.34

Input COC[C@@H](c1nnc(-c2c(-n3ccnc3)c3cc(OC)c(Cl)c(F)c3n2C)[nH]1)N(C)C [Example 124a] . Output pIC50: 6.92

Memo: COc1cc2c(-n3ccnc3)c(-c3nnc(C(C)N(C)C)[nH]3)n(C)c2c(F)c1Cl (stereo not drawn) , reported pIC50: 6.75

* * *

# experimental_system: human truncated cGAS enzyme (147-522 human cGAS) (Homo sapiens (Human))
# assay_explanation: Quantification of cGAS protein inhibition (cGAMP formation measured by LC-MS/MS)
# Assay type: biochemical
# recorded_conditions: reported for the potential mixture of co-existing tautomers and/or racemates
We begin with a simple list: items and their reported pIC50.
Recall that pIC50 is obtained by taking minus log10 of the concentration measured in molar.

Sample records with pIC50:
1. COc1cc2c(-c3cn[nH]c3)c(-c3nnc(C(F)(F)F)[nH]3)n(C)c2c(F)c1Cl : 7.13
2. COCC(O)c1nnc(-c2c(-n3ccnc3)c3cc(OC)c(Cl)c(C#N)c3n2C)[nH]1 (stereo not shown) : 7.18
3. COCC(O)c1nnc(-c2c(-n3ccnc3)c3cc(OC)c(Cl)c(F)c3n2C)[nH]1 (stereo not shown) [Example 83a] : 7.20

Kindly consider the entry below.
The value of pIC50 measured for the compound COc1cc2c(-n3ccnc3)c(-c3nnc(OCCO)[nH]3)n(C)c2c(F)c1Cl turned out to be 7.14

* * *

# experimental_system: human truncated cGAS enzyme (147-522 human cGAS) (Homo sapiens (Human))
# assay_explanation: Quantification of cGAS protein inhibition (cGAMP formation measured by LC-MS/MS)
# Assay type: biochemical
# recorded_conditions: reported for the potential mixture of co-existing tautomers and/or racemates
Entries whose IC50 is below 40 nM take t; entries at or above 40 nM take f.

These recorded examples may help you get a feel for the data.
1) COc1cc2c(-n3ccnc3)c(-c3nnc(C(F)(F)F)[nH]3)n(C)c2c(F)c1Cl : f
2) COCC(=O)N(C)c1nnc(-c2c(-c3cn[nH]c3)c3cc(OC)c(Cl)c(F)c3n2C)[nH]1 : f
3) COCCn1c(-c2nnc(C(F)(F)F)[nH]2)c(-c2cn[nH]c2)c2cc(OC)c(Cl)cc21 : f
4) COc1cc2c(-c3cn[nH]c3)c(-c3nnc(F)[nH]3)[nH]c2c(F)c1Cl : t
5) COc1cc2c(-n3ccnc3)c(-c3nnc(F)[nH]3)n(C)c2c(F)c1Cl : f
6) COc1cc2c(-n3ccnc3)c(-c3nnc(C(O)C(F)(F)F)[nH]3)n(C)c2c(F)c1Cl (stereo not drawn) : t

// query Does the reported IC50 of the following molecule sit strictly below 40 nM? COCC(F)(F)c1nnc(-c2[nH]c3c(F)c(Cl)c(OC)cc3c2-c2cn[nH]c2)[nH]1
// result t

// query Does COc1cc2c(-n3ccnc3)c(-c3nnc(C(=O)N4CCN(C)CC4)[nH]3)n(C)c2c(F)c1Cl have IC50 strictly under 40 nM?
// result f

// query Below 40 nM on IC50? Entry COCc1nnc(-c2c(-n3ccnc3)c3cc(OC)c(Cl)c(F)c3n2C)[nH]1
// result f

* * *

# experimental_system: human truncated cGAS enzyme (147-522 human cGAS) (Homo sapiens (Human), UniProt Q8N884)
# assay_explanation: Quantification of cGAS protein inhibition (cGAMP formation measured by LC-MS/MS)
# Format: biochemical
# recorded_conditions: reported for the potential mixture of co-existing tautomers and/or racemates
pIC50: −log10 of the molar value.
Output Satisfied for pIC50 not less than 7; output Not satisfied otherwise.

Consider the following illustrative entries.
1) Cn1c(-c2nnc(C(F)(F)F)[nH]2)c(-c2cn[nH]c2)c2ccc(Cl)c(Cl)c21 [Example 12] : Satisfied
2) COc1cc2c(-n3ccnc3)c(-c3nnc(C(F)(F)CO)[nH]3)n(C)c2c(F)c1Cl [Example 95] : Satisfied
3) COc1cc2c(-n3ccnc3)c(-c3nnc(CSC)[nH]3)n(C)c2c(F)c1Cl [Example 50] : Satisfied

// query I'd appreciate it if you could say whether FC(F)(F)c1nnc(-c2[nH]c3cc(Cl)c(Cl)cc3c2-c2cn[nH]c2)[nH]1 [Example 18] has pIC50 at least equal to 7.
// result Not satisfied

// query hey, is pIC50 for this one >= 7? OCCc1nnc(-c2[nH]c3c(Cl)c(Cl)ccc3c2-c2cn[nH]c2)[nH]1 [Example 15]
// result Not satisfied

// query Record COc1cc2c(-c3cn[nH]c3)c(-c3nnc(C(F)(F)F)[nH]3)[nH]c2c(F)c1Cl [Example 4] ; criterion: pIC50 no lower than 7. Met?
// result Satisfied

// query Could you please find out whether OCc1nnc(-c2[nH]c3c(Cl)c(Cl)ccc3c2-c2cn[nH]c2)[nH]1 [Example 36] has pIC50 that meets 7 or exceeds it?
// result Not satisfied

// query Decide: pIC50 of COc1cc2c(-c3cn[nH]c3)c(-c3nnc(N(C)CCO)[nH]3)n(C)c2c(F)c1Cl [Example 63] >= 7?
// result Satisfied

// query Could you verify whether the entry COc1cc2c(-c3cn[nH]c3)c(-c3nnc(C(C)(F)F)[nH]3)n(C)c2c(F)c1Cl [Example 68] shows pIC50 of no less than 7?
// result Satisfied

// query Check the entry COCC(=O)c1nnc(-c2[nH]c3c(F)c(Cl)c(OC)cc3c2-c2cn[nH]c2)[nH]1 [Example 57] : does pIC50 equal or exceed 7?
// result Satisfied

* * *

# experimental_system: human truncated cGAS enzyme (147-522 human cGAS) (Homo sapiens (Human))
# assay_explanation: Quantification of cGAS protein inhibition (cGAMP formation measured by LC-MS/MS)
# Type: biochemical
# recorded_conditions: reported for the potential mixture of co-existing tautomers and/or racemates
# Method: A reagent buffer was prepared in filtered and autoclaved water according to the following: • 50 mM Tris-buffer pH 7.5 (1 M Tris-buffer pH 7.5, Invitrogen, Cat. No. 15567-027); • 50 mM NaCl (5 M NaCl, Sodium Chloride Solution, Sigma, 59222C-); • 5 mM MgCl2 (1 M MgCl2, Sigma, M1028); • 0.1 mM ZnCl2 (Zinc Chloride [7646-85-7], powder, Cell Culture Tested, Sigma, Z-0152); and • 0.001% Tween 20 (TWEEN 20, Sigma Aldrich, P1379-). […]
readout_kind: IC50 (nM)
Give just the number in nM; leave the unit off.

1) COCC(F)(F)c1nnc(-c2c(-n3ccnc3)c3cc(OC)c(Cl)c(C#N)c3n2C)[nH]1 : 55

Short answer for Oc1cc2c(-c3cn[nH]c3)c(-c3nnc(C(F)(F)F)[nH]3)[nH]c2cc1Cl : IC50 was 38

// IC50 lookup, compound = COCC(F)(F)c1nnc(-c2c(-n3ccnc3)c3cc(OC)c(Cl)c(F)c3n2C)[nH]1 , result: 40
